The reader will find reported inhibition at 1 µg/mL values listed item by item below.
- TARGET: HIV reverse transcriptase (Human immunodeficiency virus type 1 group M subtype B, UniProt P04585)
- Construct: purchased Boehringer Mannheim
- ASSAY REMARKS: In vitro inhibition test against HIV reverse transcriptase
- Format: biochemical
- CONDITION: 1 μg/ml; read-out: Inhibitory activity of HIV-RT (%)
Write the value in % as a bare number.

Guide cases for inhibition at 1 µg/mL, answers given:
1. COCCNC(=O)c1ccc(C(=O)N2CCN(CCO)CC2)nc1 = 76
2. CCNc1cccnc1N1CCN(C(=O)c2ccc(C(=O)NCc3ccccn3)cn2)CC1 = 80
3. CC(C)Nc1cccnc1N1CCN(C(=O)c2ccc(C(=O)NC(CO)CO)cn2)CC1 = 80
4. CC(C)CNc1cccnc1N1CCN(C(=O)c2ccc(C(=O)NCCCn3ccnc3)cn2)CC1 = 62
5. COCCNC(=O)c1ccc(C(=O)N2CCN(c3ncccc3NC(C)C)CC2)nc1 = 72
6. Nc1cccnc1N1CCN(C(=O)c2ccc(C(=O)NCc3ccccn3)cn2)CC1 = 72

INPUT: Record request: inhibition at 1 µg/mL value, item `CC(C)NC(=O)c1ccc(C(=O)N2CCN(CCO)CC2)nc1`
OUTPUT: 81

INPUT: Record request: inhibition at 1 µg/mL value, item `COCCCNC(=O)c1ccc(C(=O)N2CCN(c3ncccc3NCC(C)C)CC2)nc1`
OUTPUT: 69

INPUT: Record request: inhibition at 1 µg/mL value, item `CC(C)Nc1cccnc1N1CCN(C(=O)c2ccc(C(=O)NCCc3ccccn3)cn2)CC1`
OUTPUT: 80

###

- TARGET: HBV polymerase (Hepatitis B virus genotype D subtype ayw)
- Construct: made in house; host or cells: E. coli
- Sequence (P03156 whole entry): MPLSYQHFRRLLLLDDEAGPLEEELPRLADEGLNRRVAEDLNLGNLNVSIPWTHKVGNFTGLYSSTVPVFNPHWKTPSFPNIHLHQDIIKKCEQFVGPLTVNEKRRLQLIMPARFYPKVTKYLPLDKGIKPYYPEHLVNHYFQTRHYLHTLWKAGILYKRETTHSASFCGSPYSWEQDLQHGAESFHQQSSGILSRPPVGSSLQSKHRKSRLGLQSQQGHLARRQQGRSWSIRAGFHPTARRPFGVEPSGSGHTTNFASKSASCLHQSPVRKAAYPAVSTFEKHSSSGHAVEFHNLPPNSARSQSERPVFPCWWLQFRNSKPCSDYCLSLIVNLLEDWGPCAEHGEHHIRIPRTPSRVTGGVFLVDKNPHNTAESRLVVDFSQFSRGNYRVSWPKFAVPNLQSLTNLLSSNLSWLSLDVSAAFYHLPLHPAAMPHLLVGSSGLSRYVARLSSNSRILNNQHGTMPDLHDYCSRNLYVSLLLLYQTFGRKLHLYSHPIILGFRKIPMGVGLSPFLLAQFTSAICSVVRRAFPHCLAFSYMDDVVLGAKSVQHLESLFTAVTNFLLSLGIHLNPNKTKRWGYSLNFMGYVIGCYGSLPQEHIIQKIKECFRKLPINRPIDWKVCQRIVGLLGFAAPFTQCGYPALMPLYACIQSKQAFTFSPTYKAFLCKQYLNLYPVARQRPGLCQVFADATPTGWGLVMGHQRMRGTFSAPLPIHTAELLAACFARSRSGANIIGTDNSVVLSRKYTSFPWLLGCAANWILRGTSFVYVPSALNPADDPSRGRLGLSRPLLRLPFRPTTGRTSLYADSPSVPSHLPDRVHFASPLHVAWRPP
- ASSAY REMARKS: Inhibitory activities against HBV polymerase (reverse transcriptase activity) in vitro
- Format: biochemical
- CONDITION: 0.1 μg/ml; read-out: Inhibitory activity of HBV-RT (%)
Give label 1 when the value for inhibition at 0.1 µg/mL is at least 60%. Give label 0 when it is less.

Below, 3 compounds whose answers are already recorded.
1) CC(C)Nc1cccnc1N1CCN(C(=O)c2ccc(C(=O)Nc3ccccn3)cn2)CC1 = label 0
2) CC(C)Nc1cccnc1N1CCN(C(=O)c2ccc(C(=O)NCCc3ccccn3)cn2)CC1 = label 0
3) COC(CN(C)C(=O)c1ccc(C(=O)N2CCN(c3ncccc3NC(C)C)CC2)nc1)OC = label 0

INPUT: Is inhibition at 0.1 µg/mL for `CC(C)Nc1cccnc1N1CCN(C(=O)c2ccc(C(=O)NC(C)(C)CO)cn2)CC1` at or above 60%?
OUTPUT: label 1

INPUT: Is inhibition at 0.1 µg/mL for `CCN(CCO)C(=O)c1ccc(C(=O)N2CCN(c3ncccc3NC(C)C)CC2)nc1` at or above 60%?
OUTPUT: label 0

INPUT: Is inhibition at 0.1 µg/mL for `CCNc1cccnc1N1CCN(C(=O)c2ccc(C(=O)NCCN3CCOCC3)cn2)CC1` at or above 60%?
OUTPUT: label 0

###

The reader will find reported inhibition at 1 µg/mL values listed item by item below.
- TARGET: HIV reverse transcriptase (Human immunodeficiency virus type 1 group M subtype B)
- Construct: purchased Boehringer Mannheim
- ASSAY REMARKS: In vitro inhibition test against HIV reverse transcriptase
- Assay type: biochemical
- CONDITION: 1 μg/ml; read-out: Inhibitory activity of HIV-RT (%)
Write the value in % as a bare number.

INPUT: Record request: inhibition at 1 µg/mL value, item COc1ccc(NC(=O)c2ccc(C(=O)N3CCN(c4ncccc4NC(C)C)CC3)nc2)cn1 [Exam. 71]
OUTPUT: 74

INPUT: Record request: inhibition at 1 µg/mL value, item CC(C)Nc1cccnc1N1CCN(C(=O)c2ccc(C(=O)Nc3ncccc3O)cn2)CC1 [Exam. 85]
OUTPUT: 70

INPUT: Record request: inhibition at 1 µg/mL value, item CC(C)Nc1cccnc1N1CCN(C(=O)c2ccc(C(=O)Nc3ccccn3)cn2)CC1 [Exam. 70]
OUTPUT: 74

INPUT: Record request: inhibition at 1 µg/mL value, item CC(C)NC(=O)c1ccc(C(=O)N2CCN(c3ncccc3N)CC2)nc1 [Exam. 27]
OUTPUT: 70

INPUT: Record request: inhibition at 1 µg/mL value, item CC(C)CNc1cccnc1N1CCN(C(=O)c2ccc(C(=O)NC(C)(C)CO)cn2)CC1 [Exam. 23]
OUTPUT: 62
